target: human α2δ-1 subunit of Cav2.2 calcium channel (Homo sapiens (Human), UniProt P54289); test: Binding assay to human α2δ-1 subunit of Cav2.2 calcium channel ([3H]-Gabapentin); conditions: binding to α2δ-1, [3H]-Gabapentin; read-out: Ki (nM) α2δ-1
Sequence (P54289 25-1103): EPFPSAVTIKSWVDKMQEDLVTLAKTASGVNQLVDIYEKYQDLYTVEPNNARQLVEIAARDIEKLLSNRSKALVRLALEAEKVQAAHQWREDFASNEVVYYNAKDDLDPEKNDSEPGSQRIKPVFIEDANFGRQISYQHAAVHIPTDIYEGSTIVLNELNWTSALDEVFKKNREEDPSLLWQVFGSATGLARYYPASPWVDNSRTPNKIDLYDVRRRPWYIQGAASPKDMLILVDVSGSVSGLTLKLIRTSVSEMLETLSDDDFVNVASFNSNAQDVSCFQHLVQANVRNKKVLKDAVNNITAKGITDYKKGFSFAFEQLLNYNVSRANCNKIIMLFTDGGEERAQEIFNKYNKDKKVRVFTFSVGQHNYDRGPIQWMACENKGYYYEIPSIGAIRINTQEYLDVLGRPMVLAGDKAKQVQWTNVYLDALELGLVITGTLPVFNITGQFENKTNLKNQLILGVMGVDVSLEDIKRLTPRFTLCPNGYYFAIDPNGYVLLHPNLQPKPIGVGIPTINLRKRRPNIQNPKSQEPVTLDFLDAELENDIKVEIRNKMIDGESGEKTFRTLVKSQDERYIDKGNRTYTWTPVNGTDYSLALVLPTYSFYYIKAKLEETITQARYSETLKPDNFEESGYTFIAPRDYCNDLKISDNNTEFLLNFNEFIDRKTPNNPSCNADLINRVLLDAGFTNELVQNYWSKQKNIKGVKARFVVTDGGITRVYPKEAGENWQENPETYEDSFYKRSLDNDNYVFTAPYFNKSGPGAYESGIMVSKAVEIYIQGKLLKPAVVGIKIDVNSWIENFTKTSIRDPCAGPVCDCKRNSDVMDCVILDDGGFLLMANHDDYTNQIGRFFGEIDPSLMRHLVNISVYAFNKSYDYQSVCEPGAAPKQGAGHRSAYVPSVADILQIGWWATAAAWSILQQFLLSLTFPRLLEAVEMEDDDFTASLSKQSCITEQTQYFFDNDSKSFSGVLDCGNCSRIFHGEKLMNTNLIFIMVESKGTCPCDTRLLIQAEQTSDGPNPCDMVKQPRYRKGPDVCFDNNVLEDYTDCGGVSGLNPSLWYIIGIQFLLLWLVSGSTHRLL
// Ki lookup, one value per entry
reported metric: Ki

                                    compound                           target_of_assay  reported_metric  observed_value
 0  CCNc1ncc2c(n1)N(C)CCN(c1cccc(OCCN(C)Cc3ccccc3)c1)C2=O  human α2δ-1 subunit of Cav2.2 calcium channel (Homo sapiens (Human), UniProt P54289)               Ki   100 to 500 nM
 1  COc1ncc2c(n1)N(C)CCN(c1cccc(CO[C@H](CCN(C)C(=O)OC(C)(C)C)c3ccccc3)c1)C2=O  human α2δ-1 subunit of Cav2.2 calcium channel (Homo sapiens (Human), UniProt P54289)               Ki       > 3000 nM
 2  CCNc1ncc2c(n1)N(C)CCN(c1cccc(CN(C)C(=O)OC(C)(C)C)c1)C2=O  human α2δ-1 subunit of Cav2.2 calcium channel (Homo sapiens (Human), UniProt P54289)               Ki       > 3000 nM
 3  Cc1ncc2c(n1)N(C)CCN(c1cccc(CO[C@H](CCN(C)C(=O)OC(C)(C)C)c3ccccc3)c1)C2=O  human α2δ-1 subunit of Cav2.2 calcium channel (Homo sapiens (Human), UniProt P54289)               Ki       > 3000 nM
 4  CCNc1ncc2c(n1)N(C)CCN(Cc1ccc(COC(CNC)c3ccccc3)cc1)C2=O (stereo not shown)  human α2δ-1 subunit of Cav2.2 calcium channel (Homo sapiens (Human), UniProt P54289)               Ki  500 to 3000 nM
 5  CCNc1ncc2c(n1)N(C)CCN(Cc1ccccc1COC(CNC)c1ccccc1)C2=O (stereo not shown)  human α2δ-1 subunit of Cav2.2 calcium channel (Homo sapiens (Human), UniProt P54289)               Ki       > 3000 nM
 6  CCNc1ncc2c(n1)N(C)CCN(Cc1ccc(COC(CCNC)c3ccccc3)cc1)C2=O (stereo not shown)  human α2δ-1 subunit of Cav2.2 calcium channel (Homo sapiens (Human), UniProt P54289)               Ki       > 3000 nM
 7    CCNc1ncc2c(n1)N(C)CCN(Cc1ccc(OC)cc1)C2  human α2δ-1 subunit of Cav2.2 calcium channel (Homo sapiens (Human), UniProt P54289)               Ki       > 3000 nM
 8  CSc1ncc2c(n1)N(C)CCN(c1cccc(CN(C)C(=O)OC(C)(C)C)c1)C2=O  human α2δ-1 subunit of Cav2.2 calcium channel (Homo sapiens (Human), UniProt P54289)               Ki       > 3000 nM
 9  CCNc1ncc2c(n1)N(C)CCN(Cc1cccc(COC(CCNC)c3ccccc3)c1)C2=O (stereo not shown)  human α2δ-1 subunit of Cav2.2 calcium channel (Homo sapiens (Human), UniProt P54289)               Ki       > 3000 nM
10  CCNc1ncc2c(n1)N(C)CCN(c1cccc(CN3CCC(c4ccccc4)(N(C)C)CC3)c1)C2=O  human α2δ-1 subunit of Cav2.2 calcium channel (Homo sapiens (Human), UniProt P54289)               Ki  500 to 3000 nM
11  CCNc1ncc2c(n1)N(C)CCN(c1cccc(COC(CNC)c3ccccc3)c1)C2=O (stereo not shown)  human α2δ-1 subunit of Cav2.2 calcium channel (Homo sapiens (Human), UniProt P54289)               Ki  500 to 3000 nM
12  CCNc1ncc2c(n1)N(C)CCN(c1cccc(CCO)c1)C2=O  human α2δ-1 subunit of Cav2.2 calcium channel (Homo sapiens (Human), UniProt P54289)               Ki       > 3000 nM
13  CCNc1ncc2c(n1)N(C)CCN(c1cccc(OC(CN(C)C(=O)OC(C)(C)C)c3ccccc3)c1)C2=O (stereo not shown)  human α2δ-1 subunit of Cav2.2 calcium channel (Homo sapiens (Human), UniProt P54289)               Ki       > 3000 nM
14  CNCCC(OCc1cccc(N2CCN(C)c3nc(NCc4ccccc4)ncc3C2=O)c1)c1ccccc1 (stereo not shown)  human α2δ-1 subunit of Cav2.2 calcium channel (Homo sapiens (Human), UniProt P54289)               Ki  500 to 3000 nM
15  CCNc1ncc2c(n1)N(C)CCN(c1cccc(COC(C)CCN(C)C(=O)OC(C)(C)C)c1)C2=O (stereo not shown)  human α2δ-1 subunit of Cav2.2 calcium channel (Homo sapiens (Human), UniProt P54289)               Ki       > 3000 nM

---

target: human norepinephrine transporter (NET) (Homo sapiens (Human)); experiment: Binding assay to human norepinephrine transporter (NET) ([3H]-Nisoxetin); conditions: Table 2, dual compounds; [3H]-Nisoxetin binding
Sequence (P23975 whole entry): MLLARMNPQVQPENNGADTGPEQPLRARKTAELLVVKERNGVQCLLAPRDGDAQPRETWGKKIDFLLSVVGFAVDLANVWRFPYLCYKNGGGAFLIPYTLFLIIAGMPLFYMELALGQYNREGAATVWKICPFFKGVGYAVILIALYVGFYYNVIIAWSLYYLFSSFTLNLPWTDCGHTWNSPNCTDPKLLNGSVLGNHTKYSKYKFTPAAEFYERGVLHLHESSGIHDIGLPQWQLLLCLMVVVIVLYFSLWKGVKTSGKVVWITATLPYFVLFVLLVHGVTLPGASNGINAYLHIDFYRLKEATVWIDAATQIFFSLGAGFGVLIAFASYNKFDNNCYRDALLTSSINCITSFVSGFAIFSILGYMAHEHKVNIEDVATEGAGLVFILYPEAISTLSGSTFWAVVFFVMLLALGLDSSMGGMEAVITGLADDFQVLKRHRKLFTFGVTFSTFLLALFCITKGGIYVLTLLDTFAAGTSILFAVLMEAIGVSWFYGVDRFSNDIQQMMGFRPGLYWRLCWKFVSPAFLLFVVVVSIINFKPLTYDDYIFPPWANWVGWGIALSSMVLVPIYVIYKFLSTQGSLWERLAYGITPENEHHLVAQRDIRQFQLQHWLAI
reported metric: Ki

>>> print(df.to_string())
                                    compound  observed_value
 0  CSc1ncc2c(n1)N(C)CCN(c1cccc(COC3(c4ccccc4)CCN(C)CC3)c1)C2=O [Example 271]       > 1000 nM
 1  CNCC[C@H](Oc1ccc(CN2CCN(C)c3nc(N(C)C)ncc3C2=O)cc1)c1cccs1 [Example 419]   100 to 500 nM
 2  CNCCC(Oc1cccc(N2CCN(C)c3nc(SC)ncc3C2=O)c1)c1ccccc1 (centres unmarked) [Example 151]        < 100 nM
 3  CNCC[C@@H](OCc1cccc(N2CCN(C)c3nc(N(C)Cc4ccccn4)ncc3C2=O)c1)c1ccccc1 [Example 341]   100 to 500 nM
 4  CNCC[C@H](Oc1cccc(N2CCN(C)c3nc(SC)ncc3C2=O)c1)c1ccccc1 [Example 153]        < 100 nM
 5  CNCCC(OCc1cccc(CN2CCN(C)c3nc(C)ncc3C2=O)c1)c1ccccc1 (centres unmarked) [Example 423]   100 to 500 nM
 6  CCNc1ncc2c(n1)N(C)CCN(c1ccc(COC(CCNC)c3cccs3)cc1)C2=O (centres unmarked) [Example 348]   100 to 500 nM
 7  CNCCC(Oc1ccc(CN2CCN(C)c3ccncc3C2=O)cc1)c1cccs1 (centres unmarked) [Example 381]   100 to 500 nM
 8  CCNc1cc2c(cn1)C(=O)N(c1cccc(COC(CCNC)c3ccccc3)c1)CCN2C (centres unmarked) [Example 199]       > 1000 nM
 9  CNCCC(OCc1cccc(N2CCN(C)c3nc(C(F)(F)F)ncc3C2=O)c1)c1cccs1 (centres unmarked) [Example 330]   100 to 500 nM
10  CNCCC(OCc1cccc(N2CCN(C)c3nc(SC)ncc3C2=O)c1)c1ccccc1 (centres unmarked) [Example 163]   100 to 500 nM
11  CNCC[C@@H](OCc1cccc(N2CCN(C)c3nc(OC)ncc3C2=O)c1)c1ccccc1 [Example 204]   100 to 500 nM
12  CCNc1ncc2c(n1)N(C)CCN(c1cccc(CO[C@H](CCN(C)C)c3ccccc3)c1)C2=O [Example 236]  500 to 1000 nM
13  CNCC[C@@H](OCc1cccc(N2CCN(C)c3nc(C)ncc3C2=O)c1)c1ccccc1 [Example 206]   100 to 500 nM
14  CCNc1ncc2c(n1)N(C)CCN(c1cccc(C3CCN(CCc4ccccc4)CC3)c1)C2=O [Example 261]   100 to 500 nM
15  CCNc1ncc2c(n1)N(C)CCN(c1cccc(-c3nnc(CN4CCC(c5cccc(O)c5)(N(C)C)CC4)o3)c1)C2=O [Example 442]        < 100 nM
16  CCNc1ncc2c(n1)N(C)CCN(Cc1cccc(COC(CNC)c3ccccc3)c1)C2=O (centres unmarked) [Example 411]  500 to 1000 nM
17  CCNc1ncc2c(n1)N(C)CCN(c1cccc(-n3cc(CN(C)CCc4ccccc4)nn3)c1)C2=O [Example 244]        < 100 nM
18  CCNc1ncc2c(n1)N(C)CCN(c1cccc(-n3cc(CN4CCCCC4)nn3)c1)C2=O [Example 281]   100 to 500 nM
19  CCNc1ncc2c(n1)N(C)CCN(c1cccc(-n3cc(CN(C)Cc4ccccc4)nn3)c1)C2=O [Example 243]        < 100 nM
20  CNCC(OCc1cccc(N2CCN(C)c3nc(SC)ncc3C2=O)c1)c1ccccc1 (centres unmarked) [Example 226]  500 to 1000 nM
21  CNCCC(Oc1ccc(CN2CCN(C)c3ncncc3C2=O)cc1)c1ccccc1 (centres unmarked) [Example 430]        < 100 nM
22  CCNc1ncc2c(n1)N(C)CCN(c1cccc(-n3cc(CN(C)Cc4ccccn4)nn3)c1)C2=O [Example 288]   100 to 500 nM
23  CCNc1ncc2c(n1)N(C)CCN(c1cccc(-n3cc(CN4CCC(c5ccccc5)CC4)nn3)c1)C2=O [Example 278]        < 100 nM
24  CCNc1ncc2c(n1)N(C)CCN(Cc1ccc(OC(CNC)c3ccccc3)cc1)C2=O (centres unmarked) [Example 201]        < 100 nM
25  CCNc1ncc2c(n1)N(C)CCN(c1cccc(COC3(c4ccccc4)CCNCC3)c1)C2=O [Example 176]       > 1000 nM
26  CCNc1ncc2c(n1)N(C)CCN(Cc1ccc(O[C@H](CCNC)c3ccccc3)cc1)C2=O [Example 415]   100 to 500 nM
27  CNC(COCc1cccc(N2CCN(C)c3nc(SC)ncc3C2=O)c1)c1ccccc1 (centres unmarked) [Example 167]       > 1000 nM
28  CNCC[C@H](OCc1cccc(N2CCN(C)c3nc(SC)ncc3C2=O)c1)c1ccccc1 [Example 165]   100 to 500 nM
29  CNCC[C@@H](OCc1cccc(N2CCN(C)c3nc(SC)ncc3C2=O)c1)c1cccs1 [Example 209]   100 to 500 nM
30  CCNc1ncc2c(n1)N(C)CCN(c1cccc(OC(CCNC)c3ccccn3)c1)C2=O (centres unmarked) [Example 193]       > 1000 nM
31  CNCC[C@@H](OCc1cccc(N2CCN(C)c3nc(N(C)C)ncc3C2=O)c1)c1ccccc1 [Example 196]  500 to 1000 nM
